Reference source: PubChem BioAssay AID1918955

System: NCI/ADR-RES complex spheroid viability
Assay: Anticancer human tumor NCI/ADR-RES cell line growth inhibition;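 also: spheroids exposed to compounds for 7 days; 100% = DMSO vehicle treated spheroids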
Details: second compound 1 µM; first compound 0.1 µM; active compounds read low
Excerpt: Multicellular complex tumor spheroid response to LSD1 Inhibitor Iadademstat in combination with a variety of drugs and investigational agents in selected tumor cell lines The current study was undertaken to assess response to LSD1 inhibitors in combination with standard-of-care drugs and investigational agents in solid tumor complex spheroid models as well as in the K-562 leukemia. […] Compounds. […] If the clinical Cmax for an agent had not been determined, the highest concentration tested was 10 microM. […]
// viability, T/C lookup, one value per entry
experimentalReadout: viability, T/C (%)

INSERT INTO assay_data (molecule, reportedmeasurement) VALUES
  ('O=C(C=Cn1cnc(-c2cc(C(F)(F)F)cc(C(F)(F)F)c2)n1)NNc1cnccn1 + NC1CCC(NC2CC2c2ccccc2)CC1', 11.6),
  ('Cn1ncnc1C1c2n[nH]c(=O)c3cc(F)cc(c23)NC1c1ccc(F)cc1 (centres undefined) + NC1CCC(NC2CC2c2ccccc2)CC1', 98),
  ('CC[C@@]1(O)C(=O)OCc2c1cc1n(c2=O)Cc2cc3c(CN(C)C)c(O)ccc3nc2-1 + NC1CC1c1ccc(-c2cccc(O)c2)cc1', 2.84),
  ('CC(C)CC(NC(=O)CNC(=O)c1cc(Cl)ccc1Cl)B1OC(=O)CC(CC(=O)O)(C(=O)O)O1 (centres undefined) + NC1CC1c1ccc(-c2cccc(O)c2)cc1', 3.84),
  ('CC1COCCN1c1cc(C2(S(C)(=N)=O)CC2)nc(-c2ccnc3[nH]ccc23)n1 (centres undefined) + NC1CCC(NC2CC2c2ccccc2)CC1', 102),
  ('COc1cc(Nc2ncc3c(n2)-c2ccc(Cl)cc2C(c2c(F)cccc2OC)=NC3)ccc1C(=O)O + NC1CC1c1ccc(-c2cccc(O)c2)cc1', 19.7),
  ('Cn1ncnc1C1c2n[nH]c(=O)c3cc(F)cc(c23)NC1c1ccc(F)cc1 (centres undefined) + NC1CC1c1ccc(-c2cccc(O)c2)cc1', 102),
  ('CC(C)c1c(-c2ccccc2)nc2c(C#N)c[nH]n2c1=O + NC1CCC(NC2CC2c2ccccc2)CC1', 111),
  ('CC(C)CC(NC(=O)C(Cc1ccccc1)NC(=O)c1cnccn1)B(O)O (centres undefined) + NC1CC1c1ccc(-c2cccc(O)c2)cc1', 0.37),
  ('O=C(C=Cn1cnc(-c2cc(C(F)(F)F)cc(C(F)(F)F)c2)n1)NNc1cnccn1 + NC1CC1c1ccc(-c2cccc(O)c2)cc1', 8.19),
  ('Nc1ncn(C2CC(O)C(CO)O2)c(=O)n1 (centres undefined) + NC1CC1c1ccc(-c2cccc(O)c2)cc1', 30.4),
  ('CC(C)c1c(-c2ccccc2)nc2c(C#N)c[nH]n2c1=O + NC1CC1c1ccc(-c2cccc(O)c2)cc1', 101),
  ('CC1(C)CCC(CN2CCN(c3ccc(C(=O)NS(=O)(=O)c4ccc(NCC5CCOCC5)c([N+](=O)[O-])c4)c(Oc4cnc5[nH]ccc5c4)c3)CC2)=C(c2ccc(Cl)cc2)C1 + NC1CCC(NC2CC2c2ccccc2)CC1', 108),
  ('COc1cc(Nc2ncc3c(n2)-c2ccc(Cl)cc2C(c2c(F)cccc2OC)=NC3)ccc1C(=O)O + NC1CCC(NC2CC2c2ccccc2)CC1', 18.6);
